Please provide measured Visual classification at the end of the tempering step (points system) for the entries that follow.
protocol-text: Drying behaviour of crystallisates in dependence on residual moisture and product purity (tempering in sealed vials, visual points classification)
Assay type: physicochemical
Set-up: key: 5 points=sample unchanged; 4 points=sample compacted/started to dissolve; 3 points=sample visibly started to dissolve; 2 points=sample cloudy highly viscous solution; 1 point=sample dissolved to clear solution
experimental-context: Temperature 70 °C, test duration 5 h, sealed vial, shaken

Measured Visual classification at the end of the tempering step (points system) of O=P(O)(O)CN(CCN(CP(=O)(O)O)CP(=O)(O)O)CCN(CP(=O)(O)O)CP(=O)(O)O [unwashed quality 36 [% by mass] residual moisture] : 1

Recorded result, O=P(O)(O)CN(CCN(CP(=O)(O)O)CP(=O)(O)O)CCN(CP(=O)(O)O)CP(=O)(O)O [unwashed quality 40 [% by mass] residual moisture] , Visual classification at the end of the tempering step (points system): 1

So, O=P(O)(O)CN(CCN(CP(=O)(O)O)CP(=O)(O)O)CCN(CP(=O)(O)O)CP(=O)(O)O [unwashed quality 51 [% by mass] residual moisture] ? Its Visual classification at the end of the tempering step (points system) was 1

Given item O=P(O)(O)CN(CCN(CP(=O)(O)O)CP(=O)(O)O)CCN(CP(=O)(O)O)CP(=O)(O)O [washed quality 11 [% by mass] residual moisture] , the value recorded as its Visual classification at the end of the tempering step (points system) is 5

Noted for O=P(O)(O)CN(CCN(CP(=O)(O)O)CP(=O)(O)O)CCN(CP(=O)(O)O)CP(=O)(O)O [unwashed quality 31 [% by mass] residual moisture] : its Visual classification at the end of the tempering step (points system) reads 1

Cited source for all entries: patent US10590153B2
